- measurement target: Estrogen receptor beta (Homo sapiens) (UniProt Q92731)
- Sequence (Q92731 whole entry, looked up): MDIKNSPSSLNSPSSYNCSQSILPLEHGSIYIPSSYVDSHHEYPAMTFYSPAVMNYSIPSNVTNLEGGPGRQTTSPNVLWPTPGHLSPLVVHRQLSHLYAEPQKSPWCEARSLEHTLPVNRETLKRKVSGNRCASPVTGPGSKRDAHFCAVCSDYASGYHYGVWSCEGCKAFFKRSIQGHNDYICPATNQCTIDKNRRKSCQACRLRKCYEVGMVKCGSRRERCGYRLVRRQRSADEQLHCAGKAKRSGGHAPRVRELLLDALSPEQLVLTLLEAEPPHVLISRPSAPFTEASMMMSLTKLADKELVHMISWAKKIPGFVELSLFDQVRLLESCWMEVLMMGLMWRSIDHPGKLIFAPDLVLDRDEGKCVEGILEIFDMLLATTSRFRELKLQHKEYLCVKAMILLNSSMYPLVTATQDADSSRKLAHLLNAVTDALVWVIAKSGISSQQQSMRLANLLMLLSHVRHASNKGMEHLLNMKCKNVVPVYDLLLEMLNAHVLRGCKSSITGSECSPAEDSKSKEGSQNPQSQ
- assay comment: qHTS assay to identify small molecule antagonists of the estrogen receptor beta (ER-beta) signaling pathway (AID 1259378)
- applied conditions: ER-beta-UAS-bla HEK293T, beta-lactamase FRET ratio, 16 h; series mostly up to 92.4 µM
Inconclusive results are not listed. Active and inactive are the calls of the source. Calls follow the shape of the dose curve; as a rule, active = well fitted inhibition curve with a large enough effect in the signal ratio in the repeat runs (not every such curve was filed as active); inconclusive = weak or mixed curves, or effect the other way; inactive = no such curve, though single readings can be large or run the other way; the % refers to the signal ratio.
Outcome codes: active, inactive

| compound | assigned class |
| --- | --- |
| Brc1cc(-c2ccc(Br)c(Br)c2Br)cc(Br)c1Br | inactive |
| CCCOC(=O)c1ccc(N)cc1 | inactive |
| CO[Si](C)(OC)OC | inactive |
| Cc1nccn1-c1ccc(Sc2cccc(C3(C(N)=O)CCOCC3)c2)cc1 | active |
| Cc1cc(O)c(C(C)C)cc1Cl | inactive |
| CN1Cc2cc(C(=O)N3CCC(C4CCNCC4)CC3)ccc2N[C@@H](CC(=O)O)C1=O | inactive |
| O=C1OCCN1/N=C/c1ccc([N+](=O)[O-])o1 | inactive |
| CCOC(=O)/C=C/C(=O)O | inactive |
| COc1ccccc1N=Nc1c(S(=O)(=O)O)cc2cc(S(=O)(=O)O)cc(NC(C)=O)c2c1O | inactive |
| O=C(/C=C/c1ccccc1)OCCCc1ccccc1 | inactive |
| C=CC(=C)CCCC(C)(C)OC(C)=O | inactive |
| CC(C)CCCCCOC(=O)CCCCC(=O)OCCCCCC(C)C | inactive |
| N#C/C(=C1\SCC(c2ccccc2Cl)S1)n1ccnc1 (configuration not stated) | inactive |
| NC(=O)Nc1ccc(Cl)cc1 | inactive |
| O=C(O)C(Cc1cc(I)c(O)c(I)c1)c1ccccc1 (configuration not stated) | inactive |
| CC[C@H](NC(=O)c1cc(F)ccc1NS(=O)(=O)c1cccc2cccnc12)c1ccccc1 | inactive |
| CCOC(=O)CC(=O)C(=O)OCC | active |
| CC(=O)OCC(=O)[C@@]12OC(C)(C)O[C@@H]1C[C@H]1[C@@H]3C[C@H](F)C4=CC(=O)C=C[C@]4(C)[C@@]3(F)[C@@H](O)C[C@@]12C | inactive |
| CCN(CC)CCNC(=O)c1ccc(NC(C)=O)cc1 | inactive |
| CC(=O)[C@H]1CC[C@H]2[C@@H]3C[C@H](C)C4=CC(=O)CC[C@]4(C)[C@H]3[C@@H](O)C[C@]12C | inactive |
| CC(C)(CCl)c1ccccc1 | inactive |
| CC(C)OCC1CO1 (configuration not stated) | inactive |

====

- measurement target: Cytochrome P450 2C9 (Homo sapiens)
- assay comment: Cytochrome P450 Family 2 Subfamily C Member 9 (CYP2C9) small molecule antagonists: luciferase reporter qHTS assay (AID 1671198); also: nearly all actives have a fitted effect of over 50% in size
- applied conditions: P450-Glo CYP2C9 enzyme assay, luciferin luminescence; series mostly up to 115 µM
Inconclusive results are not listed. Active and inactive are the calls of the source. Calls come from the whole dose curve; as a rule, active = well fitted inhibition curve with a large enough effect in the repeat runs; inconclusive = weak or mixed curves; inactive = no such curve, though single readings can be large or run the other way.
Possible outcomes: 1 (active), -1 (inactive)

| molecule | assigned class |
| --- | --- |
| NC(=O)N(O)[C@@H]1COc2cc(OCc3ccccc3)ccc21 | 1 |
| C[C@@H]1C[C@H]2[C@@H]3CCC4=CC(=O)C=C[C@]4(C)[C@@]3(F)[C@@H](O)C[C@]2(C)[C@H]1C(=O)CO | 1 |
| CCC1(C)CC(=O)NC1=O (stereo unspecified) | -1 |
| CCCCCCCCCCCC[N+](C)(C)CCCS(=O)(=O)[O-] | -1 |
| CCC(Cc1ccccc1)(C(=O)c1ccc(N2CCOCC2)cc1)N(C)C (stereo unspecified) | 1 |
| CC(C)(C)C(=O)C(Oc1ccc(Cl)cc1)n1ccnc1 (stereo unspecified) | 1 |
| CC(C)c1nnc2ccc(-c3ocnc3-c3cc(F)ccc3F)cn12 | 1 |
| N#C/C(=C1\SCC(c2ccccc2Cl)S1)n1ccnc1 (stereo unspecified) | 1 |
| CO[C@H]1O[C@H](CO)[C@@H](O)[C@H](O)[C@H]1O | -1 |
| CN(C(=O)C(Cl)Cl)c1ccc(OC(=O)c2ccco2)cc1 | 1 |
| CC(C)CCCCCOC(=O)CCCCC(=O)OCCCCCC(C)C | 1 |

====

- measurement target: Cytochrome P450 2D6 (Homo sapiens) (UniProt P10635)
- Sequence (P10635 whole entry, looked up): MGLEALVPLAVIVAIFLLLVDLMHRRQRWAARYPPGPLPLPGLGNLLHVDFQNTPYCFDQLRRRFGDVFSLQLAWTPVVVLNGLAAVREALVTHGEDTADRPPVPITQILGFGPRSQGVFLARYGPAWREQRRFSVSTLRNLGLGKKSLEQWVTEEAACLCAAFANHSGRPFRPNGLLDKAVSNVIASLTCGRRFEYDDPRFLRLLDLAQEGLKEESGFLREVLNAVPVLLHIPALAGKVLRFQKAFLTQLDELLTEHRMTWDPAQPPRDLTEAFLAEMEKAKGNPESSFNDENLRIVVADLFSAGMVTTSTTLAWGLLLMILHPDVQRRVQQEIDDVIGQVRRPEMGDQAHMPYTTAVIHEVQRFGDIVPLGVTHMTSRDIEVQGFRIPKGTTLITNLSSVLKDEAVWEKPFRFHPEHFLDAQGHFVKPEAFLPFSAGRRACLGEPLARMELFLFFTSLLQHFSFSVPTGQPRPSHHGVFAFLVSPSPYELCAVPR
- assay comment: Cytochrome P450 Family 2 Subfamily D Member 6 (CYP2D6) small molecule antagonists: luciferase reporter qHTS assay (AID 1671196); also: nearly all actives have a fitted effect of over 50% in size
- applied conditions: P450-Glo CYP2D6 enzyme assay, luciferin luminescence, 1 h; series mostly up to 115 µM
Results filed as inconclusive are left out. Calls of active or inactive are those of the source. Calls follow the shape of the dose curve; as a rule, active = well fitted inhibition curve with a large enough effect in the repeat runs; inconclusive = weak or mixed curves; inactive = no such curve, though single readings can be large or run the other way.
Outcomes: active, inactive

| molecule | measurement target | assigned class |
| --- | --- | --- |
| O=C(O)c1ccc(CO)o1 | Cytochrome P450 2D6 (Homo sapiens) (UniProt P10635) | active |
| O=C(CCCN1CCN(c2ccc(F)cc2)CC1)NC1c2ccccc2CSc2ccccc21 (configuration not stated) | Cytochrome P450 2D6 (Homo sapiens) (UniProt P10635) | active |
| CN1CCN(CCCN2c3ccccc3Sc3ccc(S(=O)(=O)N(C)C)cc32)CC1 | Cytochrome P450 2D6 (Homo sapiens) (UniProt P10635) | active |
| C[N+]1(C)CCC(=C(c2ccccc2)c2ccccc2)CC1 | Cytochrome P450 2D6 (Homo sapiens) (UniProt P10635) | active |
| CNC(=O)N(c1ccccc1)c1ccccc1 | Cytochrome P450 2D6 (Homo sapiens) (UniProt P10635) | active |
| CC(C)(C)CC(C)(C)c1ccc(OCCO)cc1 | Cytochrome P450 2D6 (Homo sapiens) (UniProt P10635) | inactive |
| CCCCN(CCCC)C(=S)SSC(=S)N(CCCC)CCCC | Cytochrome P450 2D6 (Homo sapiens) (UniProt P10635) | active |
| CC(C)OCC1CO1 (configuration not stated) | Cytochrome P450 2D6 (Homo sapiens) (UniProt P10635) | inactive |
| O=C(c1ccc(O)cc1)c1ccc(Cl)cc1 | Cytochrome P450 2D6 (Homo sapiens) (UniProt P10635) | active |
| C/C(=N/NC(=O)c1ccncc1)C(=O)O | Cytochrome P450 2D6 (Homo sapiens) (UniProt P10635) | inactive |
| OCC1CC=CCC1 (configuration not stated) | Cytochrome P450 2D6 (Homo sapiens) (UniProt P10635) | inactive |
| Cc1nc2ccccc2s1 | Cytochrome P450 2D6 (Homo sapiens) (UniProt P10635) | inactive |
| CCOC(=O)c1ccccc1C | Cytochrome P450 2D6 (Homo sapiens) (UniProt P10635) | inactive |
| C[Si]1(C)O[Si](C)(C)O[Si](C)(C)O1 | Cytochrome P450 2D6 (Homo sapiens) (UniProt P10635) | inactive |
| CO/N=C1\CN(c2nc3c(cc2F)c(=O)c(C(=O)O)cn3C2CC2)CC1CN (configuration not stated) | Cytochrome P450 2D6 (Homo sapiens) (UniProt P10635) | inactive |
| ON(Cc1ccccc1)Cc1ccccc1 | Cytochrome P450 2D6 (Homo sapiens) (UniProt P10635) | active |
| CCCCCCCCCCCC(=O)[O][Sn]([CH2]CCC)([CH2]CCC)[O]C(=O)CCCCCCCCCCC | Cytochrome P450 2D6 (Homo sapiens) (UniProt P10635) | inactive |
| CCCCN(CCCC)CCCOC(=O)c1ccc(N)cc1 | Cytochrome P450 2D6 (Homo sapiens) (UniProt P10635) | active |
| CCCCCCCCSCCO | Cytochrome P450 2D6 (Homo sapiens) (UniProt P10635) | inactive |
| O=Cc1c(Cl)cccc1Cl | Cytochrome P450 2D6 (Homo sapiens) (UniProt P10635) | inactive |
| Nc1c(I)cc(I)c(C(=O)N(CCC(=O)O)c2ccccc2)c1I | Cytochrome P450 2D6 (Homo sapiens) (UniProt P10635) | inactive |
| O=C(N[C@@H](c1ccccc1)[C@@H]1CCCCN1)c1cccc(C(F)(F)F)c1Cl | Cytochrome P450 2D6 (Homo sapiens) (UniProt P10635) | active |
| OC(CCCN1CCCCC1)(c1ccccc1)c1ccccc1 | Cytochrome P450 2D6 (Homo sapiens) (UniProt P10635) | active |
| CO[C@H]1O[C@H](CO)[C@@H](O)[C@H](O)[C@H]1O | Cytochrome P450 2D6 (Homo sapiens) (UniProt P10635) | inactive |
| N#C[C@@H]1C[C@@H]2C[C@@H]2N1C(=O)[C@@H](N)C12CC3CC(CC(O)(C3)C1)C2 | Cytochrome P450 2D6 (Homo sapiens) (UniProt P10635) | active |
| CCC(C(=O)OCCN(CC)CC)c1ccccc1 (configuration not stated) | Cytochrome P450 2D6 (Homo sapiens) (UniProt P10635) | active |
| CC(C)CCCCCOC(=O)CCCCC(=O)OCCCCCC(C)C | Cytochrome P450 2D6 (Homo sapiens) (UniProt P10635) | inactive |
| Cc1c(C(=O)NN2CCCCC2)nn(-c2ccc(Cl)cc2Cl)c1-c1ccc(Cl)cc1 | Cytochrome P450 2D6 (Homo sapiens) (UniProt P10635) | inactive |
| CCOC(=O)OCC | Cytochrome P450 2D6 (Homo sapiens) (UniProt P10635) | active |
| CC(C)CCCCCCOC(=O)CCCCC(=O)OCCCCCCC(C)C | Cytochrome P450 2D6 (Homo sapiens) (UniProt P10635) | inactive |
| CO[Si](C)(OC)OC | Cytochrome P450 2D6 (Homo sapiens) (UniProt P10635) | inactive |
| Nc1ccc(C(=O)OCCCOC(=O)c2ccc(N)cc2)cc1 | Cytochrome P450 2D6 (Homo sapiens) (UniProt P10635) | active |
| CCCCC(=O)O[C@]1(C(=O)CO)[C@@H](C)C[C@H]2[C@@H]3CCC4=CC(=O)C=C[C@]4(C)[C@@]3(F)[C@@H](O)C[C@@]21C | Cytochrome P450 2D6 (Homo sapiens) (UniProt P10635) | active |
| CCC(C)=O | Cytochrome P450 2D6 (Homo sapiens) (UniProt P10635) | inactive |
| CCC(=O)OC/C=C/c1ccccc1 | Cytochrome P450 2D6 (Homo sapiens) (UniProt P10635) | inactive |
| CC(COc1ccc(C(C)(C)C)cc1)OS(=O)OCCCl (configuration not stated) | Cytochrome P450 2D6 (Homo sapiens) (UniProt P10635) | inactive |
| C1COCO1 | Cytochrome P450 2D6 (Homo sapiens) (UniProt P10635) | inactive |
| CCN(CC)CCNC(=O)c1ccc(NC(C)=O)cc1 | Cytochrome P450 2D6 (Homo sapiens) (UniProt P10635) | active |
| COC(=O)Nc1nc2ccc(C(=O)c3cccs3)cc2[nH]1 | Cytochrome P450 2D6 (Homo sapiens) (UniProt P10635) | active |
| Cc1cc2nc3ccc(=[N+](C)C)cc-3sc2cc1N | Cytochrome P450 2D6 (Homo sapiens) (UniProt P10635) | active |
| CC(=O)CC(c1ccc([N+](=O)[O-])cc1)c1c(O)c2ccccc2oc1=O (configuration not stated) | Cytochrome P450 2D6 (Homo sapiens) (UniProt P10635) | active |
| c1ccc(COCc2ccccc2)cc1 | Cytochrome P450 2D6 (Homo sapiens) (UniProt P10635) | inactive |
